- Assay Name: Pharmacokinetic study in cynomolgus monkeys after oral (nasogastric) gavage, sublingual and intravenous administration
- Format: in vivo
- Assay Setup: both sexes, cynomolgus monkey, plasma, oral, 30 mg/kg, Plasma Bumetanide Dibenzylamide concentration, Mean, monkey, NG 30 mg/kg, First Formulation (Form 1), 0.50 h, N=4

# Molecule, concentration at 0.5 h (ng/mL)
data = [
    ("CCCCNc1cc(C(=O)N(Cc2ccccc2)Cc2ccccc2)cc(S(N)(=O)=O)c1Oc1ccccc1 [Bumetanide Dibenzylamide]", 5.9),
]

###

- Assay Name: in vitro
- Assay Setup: human, Caco-2, pH 7.4, Mean % Solution Recovery B to A

# Compound, U, recovery at 2 h, 10 μM
records = [
    ("C[C@H]1O[C@@H](O[C@H]2[C@@H](O)C[C@H](O[C@H]3[C@@H](O)C[C@H](O[C@H]4CC[C@@]5(C)[C@H](CC[C@@H]6[C@@H]5C[C@@H](O)[C@]5(C)[C@@H](C7=CC(=O)OC7)CC[C@]65O)C4)O[C@@H]3C)O[C@@H]2C)C[C@H](O)[C@@H]1O [Digoxin, reference compound]", "%", 108),
]
